Cited source: paper PMC5540273

// %Inh lookup, one value per entry
test system: RSK1(Kin.Dom.1-N-terminal); construct: gene RPS6KA1; details: concentration: 1 μM,replicates: in singlicate; n = 1;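 further: KINOMEscan kinase panel screen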
Please respond with the number in % and leave the unit unwritten.

INSERT INTO assay_data (molecule, value_observed) VALUES
  ('COc1cccc(CNC(=O)NC2CCN(c3ccnc(Nc4cc(OC)c(OC)c(OC)c4)n3)C2)c1 (centres unmarked)', 17),
  ('CN1CCN(CCNc2nc3cc(Oc4ccc(NC(=O)Nc5cc(C(F)(F)F)ccc5F)cc4)ccc3[nH]2)CC1.Cl.Cl', 7),
  ('C[C@@H]1CNc2c(sc3ccc4nc(-c5ccncc5)ccc4c23)C(=O)N1', 0);

Query string: Which %Inh reading was recorded for the molecule "Cc1cccc(-c2nc(Nc3ccncc3)c3sccc3n2)n1" ?
Result string: 2

Query string: Sample "CS(=O)(=O)c1cccc(CNc2nc(Nc3ccc4c(c3)[C@@H]3C[C@@H]4CNC3=O)ncc2C(F)(F)F)c1" — what was its %Inh?
Result string: 66

---

tested on: PIP5K1C; details: concentration: 1 μM,replicates: in singlicate; n = 1
Decision: %Inh >= 30% yields met, all other cases yield not met.

Use the examples below as a reference point.
INSERT INTO results (compound, category) VALUES
  ('CN(c1ccc2c(c1)nc(NCc1ccc(F)cc1)n2C)c1ccnc(Nc2ccc(CS(C)(=O)=O)cc2)n1.Cl', 'not met'),
  ('Cl.c1ccc(Oc2ccc(Nc3ccnc4cc(-c5ccc(CN6CCNCC6)o5)ccc34)cc2)nc1', 'met'),
  ('COc1cc2ncn(-c3cc(OCC4CCCCC4)c(C(N)=O)s3)c2cc1OC', 'met'),
  ('C[C@@H]1CCN(C(=O)N2CCCC2)C[C@@H]1N(C)c1ncnc2[nH]ccc12', 'not met'),
  ('CCOC(=O)N1CCC(n2cnc(-c3ccc(F)cc3)c2-c2ccnc(N)n2)CC1', 'met');

Query string: Is the recorded value of %Inh equal to or greater than 30% for this compound? CC(C(=O)NC1CCN(c2ccnc(Nc3ccc(F)cc3)n2)C1)c1ccc(Cl)cc1 (centres unmarked)
Result string: not met

Query string: Assess whether reported %Inh for "Cc1cccc2c(-c3ccncc3)c(-c3ccc(F)cc3)nn12.Cl" sits at 30% or higher.
Result string: met

Query string: # bool: %Inh of COc1cccc(CNC(=O)NC2CCN(c3ccnc(Nc4cc(OC)c(OC)c(OC)c4)n3)C2)c1 (centres unmarked) >= 30%
Result string: met

---

tested on: JAK2(JH1domain-catalytic); settings: concentration: 1 μM,replicates: in singlicate; n = 1
%Inh listing for selected compounds.
Hi! Could you send only the number? It should be in %, unit omitted.

// known answers, use as guide
INSERT INTO assay_data (compound, tgt, value_observed) VALUES
  ('Cl.Cl.NC[C@H](CC1CCCCC1)NC(=O)c1ccc(-c2ccnc3[nH]ccc23)s1', 'JAK2(JH1domain-catalytic)', 97.2),
  ('O=C(Nc1cccc(Oc2ccc3nccn3n2)c1)Nc1cccc(C(F)(F)F)c1', 'JAK2(JH1domain-catalytic)', 9),
  ('O=C1NCCc2[nH]c(-c3ccncc3)cc21', 'JAK2(JH1domain-catalytic)', 73);

Query string: What does the data say about its %Inh? Entry: "C[C@@H]1CCN(C(=O)N2CCCC2)C[C@@H]1N(C)c1ncnc2[nH]ccc12"
Result string: 100

Query string: Any idea what %Inh was measured for "Cc1cccc2c(-c3ccncc3)c(-c3ccc(F)cc3)nn12.Cl" ?
Result string: 0

Query string: State the recorded %Inh for this entry: "C[C@@H]1CNc2c(sc3ccc4nc(-c5ccc(O)cc5)ccc4c23)C(=O)N1"
Result string: 53

Query string: For the compound shown here, "Cc1ccn2nc(-c3ccc(F)cc3)c(-c3ccncc3)c2c1.Cl" , give the reported %Inh.
Result string: 50

Query string: If you can, please state the reported %Inh value of "Cc1ccc(CC(=O)N2CCc3cc(-c4cn(C)c5ncnc(N)c45)ccc32)cc1" .
Result string: 0

Query string: Requested field: %Inh. Item: CCNCC(Cc1ccccc1)NC(=O)c1cc(Br)c(-c2ccnc3[nH]ccc23)s1.Cl.Cl (centres unmarked)
Result string: 82
